Quick note: these are Ki numbers for system: human cathepsin S (Homo sapiens)
Sequence (P25774 115-331): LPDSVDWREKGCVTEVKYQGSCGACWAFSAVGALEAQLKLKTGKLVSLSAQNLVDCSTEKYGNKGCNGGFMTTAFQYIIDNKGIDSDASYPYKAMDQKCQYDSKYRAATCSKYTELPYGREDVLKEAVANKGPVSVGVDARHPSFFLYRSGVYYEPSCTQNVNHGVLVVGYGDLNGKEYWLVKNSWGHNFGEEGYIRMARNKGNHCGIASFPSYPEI
Could you give me the number in µM? Just the number is fine.

smiles representation: N#CC1(NC(=O)[C@H](Cc2cccc(Cl)c2)NC(=O)CSc2ccccc2)CC1
units text: µM
measured number: 0.21

Attention now shifts to the item below.
Exercise: Answer with reported Ki of CC(C)(C)OC(=O)N[C@@H](Cc1cccc(Cl)c1)C(=O)NC1(C#N)CC1
Solution: 0.096

----------
# system: cruzain (Trypanosoma cruzi)
# Construct: Recombinant cruzain, consisting of the catalytic domain without the C-terminal extension
# assay summary: Cruzain inhibition assay
# details: duplicate measurements
endpoint: pKi
// pKi is dimensionless: -log10 of concentration (M)

Exercise: Answer with reported pKi of N#CC1(NC(=O)[C@H](Cc2cccc(Cl)c2)NC(=O)CSc2ccccc2)CC1 [5a]
Solution: 6.34

Exercise: Answer with reported pKi of CC(C)(C)OC(=O)N[C@@H](Cc1cccc(Cl)c1)C(=O)NC1(C#N)CC1 [compound 4]
Solution: 6.12

----------
Quick note: these are pKi numbers for system: human cathepsin B (Homo sapiens, UniProt P07858)
// pKi is dimensionless: -log10 of concentration (M)

molecule: N#CC1(NC(=O)[C@H](Cc2cccc(Cl)c2)NC(=O)CSc2ccccc2)CC1 [5a]
system: human cathepsin B (Homo sapiens, UniProt P07858)
pKi: 5.17

Attention now shifts to the item below.
Exercise: Give pKi; test system human cathepsin B (Homo sapiens, UniProt P07858); molecule CC(C)(C)OC(=O)N[C@@H](Cc1cccc(Cl)c1)C(=O)NC1(C#N)CC1 [compound 4]
Solution: 4.81

----------
Reported Ki is given for each of the following molecules.
# system: human cathepsin K (Homo sapiens)
# Sequence (P43235 115-329): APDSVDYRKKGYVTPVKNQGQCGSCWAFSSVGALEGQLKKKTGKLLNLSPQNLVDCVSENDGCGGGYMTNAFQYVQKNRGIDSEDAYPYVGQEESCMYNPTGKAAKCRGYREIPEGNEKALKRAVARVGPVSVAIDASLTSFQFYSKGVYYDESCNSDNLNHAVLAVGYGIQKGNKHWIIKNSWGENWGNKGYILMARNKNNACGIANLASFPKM
Could you give me the number in nM? Just the number is fine.

molecule: CC(C)(C)OC(=O)N[C@@H](Cc1cccc(Cl)c1)C(=O)NC1(C#N)CC1 [compound 4]
units text: nM
measured number: 1850

Attention now shifts to the item below.
Exercise: Give Ki; test system human cathepsin K (Homo sapiens); molecule N#CC1(NC(=O)[C@H](Cc2cccc(Cl)c2)NC(=O)CSc2ccccc2)CC1 [5a]
Solution: 1410

----------
# system: SmCB1 (Schistosoma mansoni, UniProt Q8MNY2, T185A/T300A)
# assay summary: biochemical
endpoint: pKi
// pKi is dimensionless: -log10 of concentration (M)

smiles representation: CC(C)(C)OC(=O)N[C@@H](Cc1cccc(Cl)c1)C(=O)NC1(C#N)CC1
pKi: 4.57

Attention now shifts to the item below.
Exercise: Answer with reported pKi of N#CC1(NC(=O)[C@H](Cc2cccc(Cl)c2)NC(=O)CSc2ccccc2)CC1
Solution: 4.84
